Please respond with reported protein stability index for every item in the list.
B1: KCNAB2 (parent)
chain: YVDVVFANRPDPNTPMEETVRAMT

- Variants of: B1
- test_summary: protein stability index of a GFP-peptide fusion (GPS, HEK-293T) (PSI 1-6); higher = more stable;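 note: lentivirally expressed fusions sorted by FACS into six bins by GFP to DsRed ratio, PSI derived from sequencing read proportions per bin multiplied by bin number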
- settings: c terminus: a fixed tail appended
Give bare numbers.

Example results:
D11L :: 1.89
V4Q :: 1.71

Answer for every listed entry: what is its protein stability index? The entries follow.
1. T14N
2. A22D
3. A22E
4. Y1S
5. A7H

Output:
[3.02, 2.67, 1.6, 4.28, 2.09]
